# credit: patent US11420958B2

# target_entity: human TLR7 (Homo sapiens (Human), UniProt Q9NYK1)
# Sequence (Q9NYK1 27-1049): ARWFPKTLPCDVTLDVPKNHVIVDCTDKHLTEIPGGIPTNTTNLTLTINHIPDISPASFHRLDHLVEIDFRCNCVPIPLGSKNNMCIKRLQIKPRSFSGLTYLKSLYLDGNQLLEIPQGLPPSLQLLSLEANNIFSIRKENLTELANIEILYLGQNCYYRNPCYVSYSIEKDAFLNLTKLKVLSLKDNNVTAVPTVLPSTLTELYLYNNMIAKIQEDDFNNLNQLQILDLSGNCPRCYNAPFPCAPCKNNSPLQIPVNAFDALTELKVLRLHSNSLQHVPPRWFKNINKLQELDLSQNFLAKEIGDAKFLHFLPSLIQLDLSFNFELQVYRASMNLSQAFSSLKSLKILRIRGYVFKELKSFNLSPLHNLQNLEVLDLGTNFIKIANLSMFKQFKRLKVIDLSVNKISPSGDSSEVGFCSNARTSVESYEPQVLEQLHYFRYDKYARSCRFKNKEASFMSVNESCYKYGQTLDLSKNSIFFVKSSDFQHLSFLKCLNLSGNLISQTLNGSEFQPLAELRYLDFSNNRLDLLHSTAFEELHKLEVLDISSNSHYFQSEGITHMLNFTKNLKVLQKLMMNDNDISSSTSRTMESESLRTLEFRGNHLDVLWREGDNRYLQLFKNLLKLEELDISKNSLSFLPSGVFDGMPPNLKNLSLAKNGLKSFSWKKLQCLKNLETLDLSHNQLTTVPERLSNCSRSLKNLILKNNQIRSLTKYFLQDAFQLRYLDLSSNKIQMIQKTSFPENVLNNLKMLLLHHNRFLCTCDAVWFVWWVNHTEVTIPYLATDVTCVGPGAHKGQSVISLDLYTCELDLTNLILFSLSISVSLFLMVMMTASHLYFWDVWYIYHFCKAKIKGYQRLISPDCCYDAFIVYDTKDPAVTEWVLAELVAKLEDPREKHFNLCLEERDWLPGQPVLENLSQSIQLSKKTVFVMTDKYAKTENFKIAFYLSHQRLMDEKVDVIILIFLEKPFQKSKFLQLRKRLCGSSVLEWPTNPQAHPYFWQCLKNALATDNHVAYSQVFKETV
# method_notes: TLR7 inhibition reporter assay (HEK-Blue, SEAP)
# experimental_setup: HEK-Blue cells overexpressing human TLR7, gardiquimod 7.5 μM stimulation
Can you tell me IC50 for the items I'm about to list?
The figure you give is taken to be in nM; do not add the unit.

Lab note: Cc1cc(-c2[nH]c3ccc(-c4nnc([C@H]5CCNC5)o4)cc3c2C(C)C)ccn1 gave IC50 of 15

Lab note: Cc1cc(-c2[nH]c3ccc(-c4nnc([C@@H]5CCCN5)o4)cc3c2C(C)C)ccn1 gave IC50 of 162

Lab note: Cc1cc(-c2[nH]c3ccc(-c4nnc(C5CCCN(C(C)C)C5)[nH]4)cc3c2C(C)C)cc(C)n1 (centres unmarked) [Example 358] gave IC50 of 4.9

Lab note: Cc1cc(-c2[nH]c3ccc(-c4ccc(NC(=O)[C@H]5CCNC5)nc4)cc3c2C(C)C)ccn1 gave IC50 of 83

Lab note: COc1ccc(-c2[nH]c3ccc(-c4nnc(C(=O)N5CCC(N6CCCC6)CC5)o4)cc3c2C(C)C)cc1OC gave IC50 of 99

Lab note: Cc1cc(-c2[nH]c3ccc(-c4cc5c(s4)CN(C)CC5)cc3c2C(C)C)cc(C)n1 gave IC50 of 6

Lab note: CCc1c(-c2ccc(OC)c(OC)c2)[nH]c2ccc(-c3noc(CCN(C)C)n3)cc12 gave IC50 of 306

Lab note: CCc1c(-c2ccc(OC)c(OC)c2)[nH]c2ccc(-c3ccc(N4CCN(C)CC4)cc3)cc12 gave IC50 of 517

====

# target_entity: human TLR7 (Homo sapiens (Human))
# method_notes: TLR7 inhibition reporter assay (HEK-Blue, SEAP)
# experimental_setup: HEK-Blue cells overexpressing human TLR7, gardiquimod 7.5 μM stimulation
Can you tell me IC50 for the items I'm about to list?
The figure you give is taken to be in nM; do not add the unit.

CC(C)c1c(-c2ccnc3[nH]ncc23)[nH]c2ccc(-c3nnc(CC4CCCNC4)o3)cc12 (stereo not drawn) on human TLR7 (Homo sapiens (Human)) gives IC50 = 332

Cc1cc(-c2[nH]c3ccc(-c4nc5c(s4)CN(C(=O)C4CC(=O)N(C)C4)CC5)cc3c2C(C)C)cc(C)n1 (stereo not drawn) on human TLR7 (Homo sapiens (Human)) gives IC50 = 20

Cc1cc(-c2[nH]c3ccc(-c4ccc(NC(=O)CN(C)C)nc4)cc3c2C(C)C)ccn1 on human TLR7 (Homo sapiens (Human)) gives IC50 = 26

COc1ccc(-c2[nH]c3ccc(-c4cccc(C(=O)NCC#N)c4)cc3c2CC(F)(F)F)cc1OC on human TLR7 (Homo sapiens (Human)) gives IC50 = 744

Cc1cc(-c2[nH]c3ccc(-c4nnc(CCCCN)o4)cc3c2C(C)C)ccn1 on human TLR7 (Homo sapiens (Human)) gives IC50 = 251

CC(C)c1c(-c2ccnc3[nH]ncc23)[nH]c2ccc(-c3cccc(S(N)(=O)=O)c3)cc12 on human TLR7 (Homo sapiens (Human)) gives IC50 = 820

CNCCN1CCn2nc(-c3ccc4[nH]c(-c5ccnc6[nH]ncc56)c(C(C)C)c4c3)nc2C1 on human TLR7 (Homo sapiens (Human)) gives IC50 = 417

Cc1cc(-c2[nH]c3ccc(-c4nc5c(s4)CCN(CC(=O)N(C)C)C5)cc3c2C(C)C)cc(C)n1 on human TLR7 (Homo sapiens (Human)) gives IC50 = 20

COc1ccc(-c2[nH]c3ccc(-c4nnc(CNCCOC(C)C)o4)cc3c2C(C)C)cc1OC on human TLR7 (Homo sapiens (Human)) gives IC50 = 386

CCc1c(-c2ccnc(C)c2)[nH]c2ccc(-c3noc([C@H]4CCNC4)n3)cc12 on human TLR7 (Homo sapiens (Human)) gives IC50 = 2220

COc1ccc(-c2[nH]c3ccc(-c4nnc(C5CCN(CC(=O)N(C)C)CC5)o4)cc3c2C(C)C)cc1OC on human TLR7 (Homo sapiens (Human)) gives IC50 = 108

Cc1cc(-c2[nH]c3ccc(-c4cnc(N)nc4)cc3c2C(C)C)ccn1 on human TLR7 (Homo sapiens (Human)) gives IC50 = 264

Cc1cc(-c2[nH]c3ccc(-c4nnc(C5CCCN(C)C5)o4)cc3c2C(C)C)ccn1 (stereo not drawn) [Example 169] on human TLR7 (Homo sapiens (Human)) gives IC50 = 27

CC(C)c1c(-c2ccnc3[nH]ncc23)[nH]c2ccc(-c3nnc(C(=O)NC4CCN(C(C)C)CC4)o3)cc12 on human TLR7 (Homo sapiens (Human)) gives IC50 = 87

COc1ccc(-c2[nH]c3ccc(-c4nnc(C(=O)N5CCN(c6cnccn6)CC5)o4)cc3c2C(C)C)cc1OC on human TLR7 (Homo sapiens (Human)) gives IC50 = 936
